test: Circular dichroism (CD) spectroscopy of linear and stapled peptides in water or 40% TFE/water (Example 3); type: physicochemical; details: in 40% TFE/water
Bridges are numbered along the chain shown (N, C = ends).
ASSAY METRIC: [0]222/[0]208 ratio of ellipticities
Keep it simple and answer with nothing but the number.

Task: Dear colleague, please send me the reported [0]222/[0]208 ratio of ellipticities for Ac-(cyclo-5,9)-VSKL[ESQLK]KRKQN-NH2 (Ac-VSKLESQLKKRKQN-NH2; lactam 5-9; SMILES CC(=O)N[C@H](C(=O)N[C@@H](CO)C(=O)N[C@@H](CCCCN)C(=O)N[C@@H](CC(C)C)C(=O)N[C@H]1CCC(=O)NCCCC[C@@H](C(=O)N[C@@H](CCCCN)C(=O)N[C@@H](CCCNC(=N)N)C(=O)N[C@@H](CCCCN)C(=O)N[C@@H](CCC(N)=O)C(=O)N[C@@H](CC(N)=O)C(N)=O)NC(=O)[C@H](CC(C)C)NC(=O)[C@H](CCC(N)=O)NC(=O)[C@H](CO)NC1=O)C(C)C) [Compound 151] when you can.
Output: 0.82
